As shown below, each of these compounds has a reported Ratio IC50 value.
- Test system: B16-F10
- protocol-text: Potency index, ratio of maslinic acid IC50 to compound IC50 for growth inhibition of mouse B16F10 cells
- Type: functional

| compound-smiles | Ratio IC50 |
| --- | --- |
| CC1(C)CC[C@]2(C(=O)NCCCCCCNC(=O)[C@]34CCC(C)(C)C[C@H]3C3=CC[C@@H]5[C@@]6(C)C[C@@H](O)[C@H](O)C(C)(C)[C@@H]6CC[C@@]5(C)[C@]3(C)CC4)CC[C@]3(C)C(=CC[C@@H]4[C@@]5(C)C[C@@H](O)[C@H](O)C(C)(C)[C@@H]5CC[C@]43C)[C@@H]2C1 | 0.5 |
| CC1(C)CC[C@]2(C(=O)NCCCNC(=O)[C@]34CCC(C)(C)C[C@H]3C3=CC[C@@H]5[C@@]6(C)C[C@@H](O)[C@H](O)C(C)(C)[C@@H]6CC[C@@]5(C)[C@]3(C)CC4)CC[C@]3(C)C(=CC[C@@H]4[C@@]5(C)C[C@@H](O)[C@H](O)C(C)(C)[C@@H]5CC[C@]43C)[C@@H]2C1 | 0.8 |
| CC1(C)CC[C@]2(C(=O)NCCCCCCCCCCNC(=O)[C@]34CCC(C)(C)C[C@H]3C3=CC[C@@H]5[C@@]6(C)C[C@@H](O)[C@H](O)C(C)(C)[C@@H]6CC[C@@]5(C)[C@]3(C)CC4)CC[C@]3(C)C(=CC[C@@H]4[C@@]5(C)C[C@@H](O)[C@H](O)C(C)(C)[C@@H]5CC[C@]43C)[C@@H]2C1 | 0.4 |
| COCCOCCOCC(=O)NCCCNC(=O)[C@]12CCC(C)(C)C[C@H]1C1=CC[C@@H]3[C@@]4(C)C[C@@H](O)[C@H](O)C(C)(C)[C@@H]4CC[C@@]3(C)[C@]1(C)CC2 | 2.1 |
